- assay_system: TSLP, Q969D9
- assay_text: Kd (SPR)
Recorded Kd for the following binders
API: value field is a number in nM; no unit string.

See these solved cases before continuing.
binder: unnamed (protein) chain 1: QMQLVESGGGVVQPGRSLRLSCAASGFTFSTFAMHWVRQAPGKGLEWVAVIWYDGSNKHYADSVKGRFTITRDNSKNTLNLQMNSLRAEDTAVYYCARAPRYYYYYEAFDVWGQGTMVTVSS chain 2: SYVLTQPPSVSVAPGQTARITCGGNNLGSKSVHWYQQKPGQAPVLVVYDDSDRPSWIPERFSGSNSGNTATLTISRGEAGDEADYYCQVWDSSSDHVVFGGGTKLTVL
Kd [nM]: 208
//
binder: unnamed (protein) chain 1: QMQLVESGGGVVQPGRSLRLSCAASGFTFRTYGMHWVRQAPGKGLEWVAVIWYDGSNKHYADSVKGRFTITRDNSKNTLNLQMNSLRAEDTAVYYCARAPRYDYYWEAFDVWGQGTMVTVSS chain 2: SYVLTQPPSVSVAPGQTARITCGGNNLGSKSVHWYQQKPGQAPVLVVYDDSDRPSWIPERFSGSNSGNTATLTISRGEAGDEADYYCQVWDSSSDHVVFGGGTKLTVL
Kd [nM]: 175
//
binder: unnamed (protein) chain 1: QMQLVESGGGVVQPGRSLRLSCAASGFTFRTYGMHWVRQAPGKGLEWVAVIWYDGSNKHYADSVKGRFTITRDNSKNTLNLQMNSLRAEDTAVYYCARSPRYYDYWEAFDVWGQGTMVTVSS chain 2: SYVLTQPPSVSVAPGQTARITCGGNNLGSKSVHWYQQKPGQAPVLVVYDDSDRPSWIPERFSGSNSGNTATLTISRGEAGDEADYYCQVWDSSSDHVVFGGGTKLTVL
Kd [nM]: 72.3

Asked: Fill blank: measured Kd of the binder unnamed (protein) chain 1: QMQLVESGGGVVQPGRSLRLSCAASGFTFRTYGMHWVRQAPGKGLEWVAVIWYDGSNKHYADSVKGRFTITRDNSKNTLNLQMNSLRAEDTAVYYCARSPRYDYYYEAFDVWGQGTMVTVSS chain 2: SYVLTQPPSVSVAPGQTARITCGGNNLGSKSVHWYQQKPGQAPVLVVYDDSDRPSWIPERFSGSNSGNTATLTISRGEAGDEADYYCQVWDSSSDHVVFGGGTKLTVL is ____.
Given back: 337

Asked: Fill blank: measured Kd of the binder unnamed (protein) chain 1: QMQLVESGGGVVQPGRSLRLSCAASGFTFSTFAMHWVRQAPGKGLEWVAVIWYDGSNKHYADSVKGRFTITRDNSKNTLNLQMNSLRAEDTAVYYCARAPRYYEYWEAFDVWGQGTMVTVSS chain 2: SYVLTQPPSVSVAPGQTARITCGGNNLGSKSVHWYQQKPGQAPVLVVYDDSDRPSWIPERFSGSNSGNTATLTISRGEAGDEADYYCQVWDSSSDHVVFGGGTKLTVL is ____.
Given back: 190

Asked: Fill blank: measured Kd of the binder unnamed (protein) chain 1: QMQLVESGGGVVQPGRSLRLSCAASGFTFRTYGMHWVRQAPGKGLEWVAVIWYDGSNKHYADSVKGRFTITRDNSKNTLNLQMNSLRAEDTAVYYCARSPRYDYYWEAFDVWGQGTMVTVSS chain 2: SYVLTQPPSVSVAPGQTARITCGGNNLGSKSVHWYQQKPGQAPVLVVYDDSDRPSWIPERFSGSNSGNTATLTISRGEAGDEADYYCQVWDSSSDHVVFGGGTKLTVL is ____.
Given back: 290

Asked: Fill blank: measured Kd of the binder unnamed (protein) chain 1: QMQLVESGGGVVQPGRSLRLSCAASGFTFSSFAMHWVRQAPGKGLEWVAVIWYDGSNKHYADSVKGRFTITRDNSKNTLNLQMNSLRAEDTAVYYCARAPRYDEYYEAFDVWGQGTMVTVSS chain 2: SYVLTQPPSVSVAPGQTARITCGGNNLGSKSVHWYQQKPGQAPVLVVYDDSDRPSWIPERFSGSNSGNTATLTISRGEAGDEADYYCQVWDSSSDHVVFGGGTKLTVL is ____.
Given back: 186

Asked: Fill blank: measured Kd of the binder unnamed (protein) chain 1: QMQLVESGGGVVQPGRSLRLSCAASGFTFRTYGMHWVRQAPGKGLEWVAVIWYDGSNKHYADSVKGRFTITRDNSKNTLNLQMNSLRAEDTAVYYCARSPRYDDYLEAFDVWGQGTMVTVSS chain 2: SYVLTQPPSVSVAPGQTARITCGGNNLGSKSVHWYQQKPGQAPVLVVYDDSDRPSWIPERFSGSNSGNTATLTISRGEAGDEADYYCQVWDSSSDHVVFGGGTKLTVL is ____.
Given back: 228
